Below, each entry is listed alongside its reported Average of S/B.
# subjectOfTest: T1, recombinant purified FRα (ECL assay calibrator) (human, UniProt P15328 25-234)
# T1 construct: Calibrator of the ECL sandwich assays; also called FRα calibrator; FRα standard
# procedureSummary: ECL sandwich on FRα, signal to background; capture 1C6.E12.G8; binder = detection Ab
The answer should be written as a number, with no unit following it.

Monoclonal antibody 26A9.C4 (antibody, mouse IgG1, V domains shown, Murine IgG1 kappa from hybridoma; also called ATCC PTA-123092) VH: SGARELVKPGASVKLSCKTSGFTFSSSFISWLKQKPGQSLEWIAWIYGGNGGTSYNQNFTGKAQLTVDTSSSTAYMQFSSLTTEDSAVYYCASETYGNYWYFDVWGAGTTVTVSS VL: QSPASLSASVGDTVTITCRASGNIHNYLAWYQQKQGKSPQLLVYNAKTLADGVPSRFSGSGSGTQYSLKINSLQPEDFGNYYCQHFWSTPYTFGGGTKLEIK = 1

Now examine the next entry.
Task item: What does the data say about its Average of S/B? Entry: Monoclonal antibody 19D4.B7 (antibody, mouse IgG2a, V domains shown, SULFO-TAG conjugated when used as detection antibody in the ECL assay; also called ATCC PTA-11884) VH: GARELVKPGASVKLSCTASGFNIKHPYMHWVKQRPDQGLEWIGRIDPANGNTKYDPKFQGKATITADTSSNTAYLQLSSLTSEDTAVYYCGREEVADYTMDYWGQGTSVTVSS VL: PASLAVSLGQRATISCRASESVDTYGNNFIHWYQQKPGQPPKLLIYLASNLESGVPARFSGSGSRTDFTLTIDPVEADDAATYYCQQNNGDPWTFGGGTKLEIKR
Reply: 28
